The reported measurements were obtained from the NIST ThermoML archive (doi:10.1021/je0602925).

Experiment: activity coefficient (dimensionless); of the first substance listed, at infinite dilution; xn = mol fraction of the nth substance listed
Conditions: 318.15 K; Liquid; Chromatography; x1 = 0
Category | rule: reported activity coefficient within range, see Low = under 0.6, Medium = from 0.6 up to 0.8, High = 0.8 and over

{"columns": ["molecule", "assigned.label"],
 "data": [
  ["CCCCCCC [heptane] + CCCCCCCCCCCCCC[P+](CCCCCC)(CCCCCC)CCCCCC.O=S(=O)([N-]S(=O)(=O)C(F)(F)F)C(F)(F)F", "Medium"]
]}

query: Which category does the recorded activity coefficient put C#CCCCC [1-hexyne] + CCCCCCCCCCCCCC[P+](CCCCCC)(CCCCCC)CCCCCC.O=S(=O)([N-]S(=O)(=O)C(F)(F)F)C(F)(F)F in?
result: Low

query: Band assignment needed for C=CCCCC [hex-1-ene] + CCCCCCCCCCCCCC[P+](CCCCCC)(CCCCCC)CCCCCC.F[B-](F)(F)F please.
result: Low

query: Field: class (activity coefficient) — entry: C#CCCCCCC [1-octyne] + CCCCCCCCCCCCCC[P+](CCCCCC)(CCCCCC)CCCCCC.O=S(=O)([N-]S(=O)(=O)C(F)(F)F)C(F)(F)F
result: Low

query: Just checking, what class would you give CO [methanol] + CCCCCCCCCCCCCC[P+](CCCCCC)(CCCCCC)CCCCCC.F[B-](F)(F)F here?
result: High

query: Lab note: which band did C=CCCCC [hex-1-ene] + CCCCCCCCCCCCCC[P+](CCCCCC)(CCCCCC)CCCCCC.[Cl-] land in?
result: Low

query: Class for C=CCCCCCC [oct-1-ene] + CCCCCCCCCCCCCC[P+](CCCCCC)(CCCCCC)CCCCCC.[Cl-] ?
result: Low

query: The entry to classify is C1CCCCC1 [cyclohexane] + CCCCCCCCCCCCCC[P+](CCCCCC)(CCCCCC)CCCCCC.F[B-](F)(F)F ; which class holds it?
result: Medium

---

Assay: activity coefficient (dimensionless); of the first substance listed, at infinite dilution; xn = mol fraction of the nth substance listed
Settings: 328.15 K; Liquid; Chromatography; x1 = 0
Label rule, in plain words: activity coefficient of 0.7 and up is true, under 0.7 is false.

{"columns": ["compound", "assigned.label"],
 "data": [
  ["CCCCCCCC [octane] + CCCCCCCCCCCCCC[P+](CCCCCC)(CCCCCC)CCCCCC.[Cl-]", "true"]
]}

query: Hi, just wondering whether CCCCCCC [heptane] + CCCCCCCCCCCCCC[P+](CCCCCC)(CCCCCC)CCCCCC.F[B-](F)(F)F shows activity coefficient of 0.7 or higher.
result: true

query: Threshold query (activity coefficient >= 0.7) on CCCCCCCC [octane] + CCCCCCCCCCCCCC[P+](CCCCCC)(CCCCCC)CCCCCC.F[B-](F)(F)F
result: true

query: Does C#CCCCCC [1-heptyne] + CCCCCCCCCCCCCC[P+](CCCCCC)(CCCCCC)CCCCCC.[Cl-] have a reported activity coefficient of at least 0.7?
result: false

---

Measured activity coefficient of individual entries
Assay: activity coefficient (dimensionless); of the first substance listed, at infinite dilution; xn = mol fraction of the nth substance listed
Settings: 318.15 K; Liquid; Chromatography; x1 = 0
I'd appreciate a reply containing only the number, no unit.

query: Return reported activity coefficient; argument: c1ccccc1 [benzene] + CCCCCCCCCCCCCC[P+](CCCCCC)(CCCCCC)CCCCCC.F[B-](F)(F)F
result: 0.367

query: Could you tell me which activity coefficient is on file for C#CCCCCC [1-heptyne] + CCCCCCCCCCCCCC[P+](CCCCCC)(CCCCCC)CCCCCC.O=S(=O)([N-]S(=O)(=O)C(F)(F)F)C(F)(F)F ?
result: 0.496

query: Sample CCO [ethanol] + CCCCCCCCCCCCCC[P+](CCCCCC)(CCCCCC)CCCCCC.F[B-](F)(F)F — what was its activity coefficient?
result: 5.36

---

The following molecules are listed with their measured activity coefficient values.
Experiment: activity coefficient (dimensionless); of the first substance listed, at infinite dilution; xn = mol fraction of the nth substance listed
Conditions: 308.15 K; Liquid; Chromatography; x1 = 0

query: Need activity coefficient of CO [methanol] + CCCCCCCCCCCCCC[P+](CCCCCC)(CCCCCC)CCCCCC.[Cl-] , thanks.
result: 0.887

query: Could you tell me which activity coefficient is on file for CO [methanol] + CCCCCCCCCCCCCC[P+](CCCCCC)(CCCCCC)CCCCCC.F[B-](F)(F)F ?
result: 6.68

query: Tell me the measured activity coefficient of c1ccccc1 [benzene] + CCCCCCCCCCCCCC[P+](CCCCCC)(CCCCCC)CCCCCC.F[B-](F)(F)F , please.
result: 0.37

query: // activity coefficient lookup, key: CCO [ethanol] + CCCCCCCCCCCCCC[P+](CCCCCC)(CCCCCC)CCCCCC.[Cl-]
result: 0.74

---

Experiment: activity coefficient (dimensionless); of the first substance listed, at infinite dilution; xn = mol fraction of the nth substance listed
Settings: 328.15 K; Liquid; Chromatography; x1 = 0
readout.name: activity coefficient
Reply briefly: the number, and no unit.

query: Consider the compound shown here: C=CCCCCC [1-heptene] + CCCCCCCCCCCCCC[P+](CCCCCC)(CCCCCC)CCCCCC.[Cl-] What is its recorded activity coefficient?
result: 0.511

query: GET /values?readout=activity coefficient&item= C#CCCCCC [1-heptyne] + CCCCCCCCCCCCCC[P+](CCCCCC)(CCCCCC)CCCCCC.O=S(=O)([N-]S(=O)(=O)C(F)(F)F)C(F)(F)F
result: 0.502

query: Look up activity coefficient for this compound: C=CCCCC [hex-1-ene] + CCCCCCCCCCCCCC[P+](CCCCCC)(CCCCCC)CCCCCC.O=S(=O)([N-]S(=O)(=O)C(F)(F)F)C(F)(F)F
result: 0.49

---

Assay: activity coefficient (dimensionless); of the first substance listed, at infinite dilution; xn = mol fraction of the nth substance listed
Details: 318.15 K; Liquid; Chromatography; x1 = 0
Sorting guide: entries reporting activity coefficient beneath 0.6 go in the TRUE pile, the rest go in the FALSE pile.

Please review the entries below; each comes with its answer.
{"columns": ["molecule", "assigned.label"],
 "data": [
  ["C1CCCCCC1 [cycloheptane] + CCCCCCCCCCCCCC[P+](CCCCCC)(CCCCCC)CCCCCC.O=S(=O)([N-]S(=O)(=O)C(F)(F)F)C(F)(F)F", "FALSE"],
  ["C1CCCC1 [cyclopentane] + CCCCCCCCCCCCCC[P+](CCCCCC)(CCCCCC)CCCCCC.O=S(=O)([N-]S(=O)(=O)C(F)(F)F)C(F)(F)F", "TRUE"],
  ["CCCCCCC [heptane] + CCCCCCCCCCCCCC[P+](CCCCCC)(CCCCCC)CCCCCC.F[B-](F)(F)F", "FALSE"],
  ["CCCCCCCC [octane] + CCCCCCCCCCCCCC[P+](CCCCCC)(CCCCCC)CCCCCC.F[B-](F)(F)F", "FALSE"],
  ["CCCCCCCC [octane] + CCCCCCCCCCCCCC[P+](CCCCCC)(CCCCCC)CCCCCC.[Cl-]", "FALSE"]
]}

query: Dear colleague, could you confirm whether activity coefficient of c1ccccc1 [benzene] + CCCCCCCCCCCCCC[P+](CCCCCC)(CCCCCC)CCCCCC.[Cl-] falls below 0.6? Thanks.
result: TRUE

query: Does this molecule meet the criterion activity coefficient < 0.6? C=CCCCC [hex-1-ene] + CCCCCCCCCCCCCC[P+](CCCCCC)(CCCCCC)CCCCCC.O=S(=O)([N-]S(=O)(=O)C(F)(F)F)C(F)(F)F
result: TRUE

query: State whether 0.6 exceeds activity coefficient recorded for C1CCCC1 [cyclopentane] + CCCCCCCCCCCCCC[P+](CCCCCC)(CCCCCC)CCCCCC.F[B-](F)(F)F .
result: FALSE

query: Would you kindly verify if activity coefficient of CCCCC [pentane] + CCCCCCCCCCCCCC[P+](CCCCCC)(CCCCCC)CCCCCC.F[B-](F)(F)F is strictly less than 0.6?
result: FALSE

query: Confirm or reject: activity coefficient of C#CCCCCC [1-heptyne] + CCCCCCCCCCCCCC[P+](CCCCCC)(CCCCCC)CCCCCC.F[B-](F)(F)F lies strictly below 0.6
result: TRUE

query: Threshold test, activity coefficient < 0.6: C#CCCCC [1-hexyne] + CCCCCCCCCCCCCC[P+](CCCCCC)(CCCCCC)CCCCCC.F[B-](F)(F)F
result: TRUE

query: Given C1CCCCCC1 [cycloheptane] + CCCCCCCCCCCCCC[P+](CCCCCC)(CCCCCC)CCCCCC.[Cl-] , is recorded activity coefficient strictly lower than 0.6?
result: FALSE

query: For this molecule, is activity coefficient lower than 0.6? C1CCCC1 [cyclopentane] + CCCCCCCCCCCCCC[P+](CCCCCC)(CCCCCC)CCCCCC.[Cl-]
result: TRUE

query: For this molecule, is activity coefficient lower than 0.6? CCCCCC [hexane] + CCCCCCCCCCCCCC[P+](CCCCCC)(CCCCCC)CCCCCC.[Cl-]
result: FALSE

query: Decide: activity coefficient of C=CCCCCC [1-heptene] + CCCCCCCCCCCCCC[P+](CCCCCC)(CCCCCC)CCCCCC.F[B-](F)(F)F strictly below 0.6?
result: FALSE

query: Just wondering, is activity coefficient of CO [methanol] + CCCCCCCCCCCCCC[P+](CCCCCC)(CCCCCC)CCCCCC.O=S(=O)([N-]S(=O)(=O)C(F)(F)F)C(F)(F)F below 0.6?
result: FALSE

query: Lab note: confirm whether the reported activity coefficient for this molecule is below 0.6, equality not counting. molecule: C1CCCCCC1 [cycloheptane] + CCCCCCCCCCCCCC[P+](CCCCCC)(CCCCCC)CCCCCC.F[B-](F)(F)F
result: FALSE

query: Please state whether activity coefficient is below 0.6 for CCCCCC [hexane] + CCCCCCCCCCCCCC[P+](CCCCCC)(CCCCCC)CCCCCC.F[B-](F)(F)F
result: FALSE
